Measured logP accompanies every entry in the list below.
test: logP by HPLC on reversed-phase columns (C 18), EEC Directive 79/831 Annex V.A8; format: physicochemical; settings: values marked [b]; footnote not given
readout_kind: logP

compound: CC(C)Nc1nc(Nc2ccc(C(=O)N(C)C)cc2)ncc1Cl [Example 234]
readout_kind: logP
value_reported: 1.44[b]

compound: CCOCCN(C)c1nc(Nc2ccccc2)ncc1Br [Example 237]
readout_kind: logP
value_reported: 2.55[b]

compound: CC(=O)c1ccc(Nc2ncc(Cl)c(NC(C)C)n2)cc1 [Example 200]
readout_kind: logP
value_reported: 2.06[b]

compound: COCC(C)Nc1nc(Nc2cccc(NC(=O)c3ccco3)c2)ncc1Cl (stereo not shown) [Example 168]
readout_kind: logP
value_reported: 1.68[b]

compound: CC(C)Nc1nc(Nc2cccc(C#N)c2)ncc1Cl [Example 180]
readout_kind: logP
value_reported: 2.21[b]

compound: CNc1nc(Nc2cccc(CC#N)c2)ncc1Cl [Example 235]
readout_kind: logP
value_reported: 1.1[b]

compound: COCC(C)Nc1nc(Nc2ccc(NC(C)=O)c(OC)c2)ncc1Cl (racemic) [Example 140]
readout_kind: logP
value_reported: 1.38[b]

compound: COCC(C)Nc1nc(Nc2ccc(SC(F)F)cc2)ncc1Cl (stereo not shown) [Example 172]
readout_kind: logP
value_reported: 2.8[b]

compound: CC(C)Nc1nc(Nc2ccc(NC(=O)C(C)C)cc2)ncc1Cl [Example 209]
readout_kind: logP
value_reported: 1.61[b]

compound: COCC(C)Nc1nc(Nc2ccc(C(=O)CC#N)cc2)ncc1Br (stereo not shown) [Example 121]
readout_kind: logP
value_reported: 2.23[b]

###

Overview of reported logP across a group of molecules:
assay: logP by HPLC on reversed-phase columns (C 18), EEC Directive 79/831 Annex V.A8; format: physicochemical; conditions: values marked [b]; footnote not given

molecule: COCC(C)Nc1nc(Nc2ccc(C(=O)Nc3ccccc3)cc2)ncc1Cl (racemic)
logP: 1.8[b]
--
molecule: CSc1ccc(Nc2ncc(Cl)c(NC(C)C)n2)cc1Cl
logP: 2.91[b]
--
molecule: COCC(C)Nc1nc(Nc2cccc(NC=O)c2)ncc1Br (racemic)
logP: 1.43[b]
--
molecule: CC(C)Nc1nc(Nc2ccc(NC(=O)C3(C)CC3)cc2)ncc1Cl
logP: 1.71[b]
--
molecule: CC(C)Nc1nc(Nc2ccc3[nH]c(=O)oc3c2)ncc1Cl
logP: 1.44[b]
--
molecule: COCC(C)Nc1nc(Nc2ccc(N(C)C(=O)C(C)(C)C)cc2)ncc1Cl (stereo not shown)
logP: 1.87[b]
--
molecule: CC(C)Nc1nc(Nc2ccc(SC(F)F)cc2)ncc1Cl
logP: 2.88[b]
--
molecule: CC(C)Nc1nc(Nc2cccc(O)c2)ncc1Cl
logP: 1.39[b]
--
molecule: COCC(C)Nc1nc(Nc2ccc(O)c(C(C)=O)c2)ncc1Cl (stereo not shown)
logP: 1.68[b]
--
molecule: CC(=O)N1CCc2ccc(Nc3ncc(Cl)c(NC(C)C)n3)cc21
logP: 1.61[b]
--
molecule: CC(C)Nc1nc(Nc2ccc(NC(=O)C(C)(C)C)cc2)ncc1Cl
logP: 1.81[b]
--
molecule: CCN(C(C)=O)c1ccc(Nc2ncc(Cl)c(NC(C)C)n2)cc1
logP: 1.66[b]
--
molecule: COCC(C)Nc1nc(Nc2ccc(O)c(C)c2)ncc1Cl (stereo not shown)
logP: 1.39[b]
--
molecule: CC(=O)Nc1ccc(Nc2ncc(Cl)c(NC(C)C)n2)cc1Cl
logP: 1.61[b]
--
molecule: CC(C)Nc1nc(Nc2cccc(NC(=O)C3(C)CC3)c2)ncc1Cl
logP: 1.78[b]
--
molecule: CC(C)Nc1nc(Nc2cccc(OC(F)(F)F)c2)ncc1Cl
logP: 3.26[b]
--
molecule: COCC(C)Nc1nc(Nc2ccc(CC(=O)C(C)(C)C)cc2)ncc1Cl (stereo not shown)
logP: 2.26[b]
--
molecule: COCC(C)Nc1nc(Nc2ccc(C(=O)NC(C)(C)C)cc2)ncc1Cl (racemic)
logP: 2.06[b]
--
molecule: COCC(C)Nc1nc(Nc2cccc(NC(=O)OC)c2)ncc1Cl (stereo not shown)
logP: 1.59[b]

###

test: logP by HPLC on reversed-phase columns (C 18), EEC Directive 79/831 Annex V.A8; format: physicochemical; conditions: reversed-phase HPLC column (C 18), pH 2.3, values marked [a]; pH 2.3; read-out: logP

smiles_record: COCCN(C)c1nc(Nc2ccccc2)ncc1Cl
chromatographic logP: 2.02

###

assay: logP by HPLC on reversed-phase columns (C 18), EEC Directive 79/831 Annex V.A8; type: physicochemical; settings: method marker [b]; footnote not given; compound 68 value matches logP (pH 2.3)

compound: COCC(C)Nc1nc(Nc2cccc(CC(=O)OC)c2)ncc1Cl (centres unmarked) [Example 93]
logP: 1.75[b]
--
compound: COCCNc1nc(Nc2ccccc2)ncc1Cl.Cl [Example 61]
logP: 1.41[b]
--
compound: COCC(C)Nc1nc(Nc2ccc(SC)c(Cl)c2)ncc1Cl (centres unmarked) [Example 89]
logP: 2.77[b]
--
compound: COCC(C)Nc1nc(Nc2ccc3c(c2)OCO3)ncc1Cl (centres unmarked) [Example 97]
logP: 1.56[b]
--
compound: COCCNc1nc(Nc2cccc(C(C)=O)c2)ncc1Cl [Example 5]
logP: 1.49[b]

###

experiment: logP by HPLC on reversed-phase columns (C 18), EEC Directive 79/831 Annex V.A8; assay type: physicochemical; settings: method marker [b] (compound 257: pH2.7)

molecule: CCC(C)Nc1nc(Nc2ccccc2)ncc1Cl (stereo not shown)
logP: 2.05[b]

molecule: CC(C)Nc1nc(Nc2cccc(Cn3cccn3)c2)ncc1Cl
logP: 1.7[b]

molecule: CCCC(C)Nc1nc(Nc2ccccc2)ncc1Cl (stereo not shown)
logP: 2.41[b]

molecule: CCC(C)CNc1nc(Nc2ccccc2)ncc1Cl (stereo not shown)
logP: 2.37[b]

molecule: CCCNc1nc(Nc2cccc(SC)c2)ncc1Cl
logP: 2.3[b]

molecule: CC(C)(C)CNc1nc(Nc2ccccc2)ncc1Cl
logP: 2.48[b]

molecule: CCCNc1nc(Nc2ccccc2)ncc1Cl
logP: 1.69[b]

molecule: COc1cc(Nc2ncc(Cl)c(NC3CCCCC3)n2)cc(OC)c1OC
logP: 2.26[b]

molecule: CC(C)Nc1nc(Nc2ccc(C(=O)N(C)C)cc2)ncc1Br
logP: 1.54[b]

molecule: CC(C)CNc1nc(Nc2ccccc2)ncc1Cl
logP: 2.02[b]

###

assay: logP by HPLC on reversed-phase columns (C 18), EEC Directive 79/831 Annex V.A8; assay type: physicochemical; details: reversed-phase HPLC column (C 18), pH 2.3, method marker [a]; footnote not given; read-out: logP
Where a name gives a salt, the structure may show the parent alone.
readout_kind: chromatographic logP

compound: COCC(C)Nc1nc(Nc2ccc(C(=O)OC)cc2)ncc1Cl (stereo not shown) [Example 38, hydrochloride]
readout_kind: chromatographic logP
value_reported: 2.31

###

compounds and their reported logP
assay: logP by HPLC on reversed-phase columns (C 18), EEC Directive 79/831 Annex V.A8; type: physicochemical; conditions: method marker [b]; footnote not given; compound 68 value matches logP (pH 2.3)
readout_kind: logP

compound: COCC(C)Nc1nc(Nc2cc(OC)c(OC)c(OC)c2)ncc1C(F)(F)F (stereo not drawn)
readout_kind: logP
value_reported: 2.46[b]
--
compound: COCC(C)Nc1nc(Nc2ccc(N(C)C(C)=O)cc2)ncc1Br (stereo not drawn)
readout_kind: logP
value_reported: 1.56[b]
--
compound: COCC(C)Nc1nc(Nc2ccc(C(=O)CC#N)cc2)ncc1Cl (stereo not drawn)
readout_kind: logP
value_reported: 2.09[b]

###

assay: logP by HPLC on reversed-phase columns (C 18), EEC Directive 79/831 Annex V.A8; assay type: physicochemical; conditions: reversed-phase HPLC column (C 18), pH 2.7, method marker [b] (compound 257: pH2.7); read-out: logP

smiles_record: CC(C)c1cccc(Nc2ncc(C(F)(F)F)c(NC3CCCC3)n2)c1
chromatographic logP: 5.08

###

experiment: logP by HPLC on reversed-phase columns (C 18), EEC Directive 79/831 Annex V.A8; assay type: physicochemical; details: method marker [a]; footnote not given

compound: CN(C)S(=O)(=O)c1cccc(Nc2ncc(Cl)c(NC(C)(C)C)n2)c1 [Example 51]
logP: 2.73[a]
--
compound: CCC(C)Nc1nc(Nc2ccccc2)ncc1Cl.Cl (stereo not drawn) [Example 65]
logP: 2.04[a]
--
compound: CC(=O)c1cccc(Nc2ncc(Cl)c(NC(C)(C)C)n2)c1 [Example 49]
logP: 2.15[a]
--
compound: CCC(C)N(C)c1nc(Nc2ccccc2)ncc1Cl (stereo not drawn) [Example 40]
logP: 2.85[a]
--
compound: COC(=O)c1ccc(Nc2ncc(Cl)c(N(C)C)n2)cc1 [Example 39]
logP: 2.47[a];
--
compound: CN(C)c1nc(Nc2ccc(S(C)(=O)=O)cc2)ncc1Cl [Example 28]
logP: 1.98[a]
--
compound: CCN(CC)c1ccc(Nc2ncc(Cl)c(NC(C)COC)n2)cc1 (stereo not drawn) [Example 13]
logP: 1.16[a]
--
compound: CCCCNc1nc(Nc2ccccc2)ncc1Cl [Example 32]
logP: 2.12[a]
--
compound: COCC(C)Nc1nc(Nc2ccc(S(=O)(=O)N(C)C)cc2)ncc1Cl (stereo not drawn) [Example 16]
logP: 2.25[a];
--
compound: COCC(C)Nc1nc(Nc2ccccc2)ncc1C(F)(F)F (stereo not drawn) [Example 25]
logP: 2.96[a];
--
compound: CCC(CO)Nc1nc(Nc2ccc(N3CCN(C(=O)OC(C)(C)C)CC3)cc2)ncc1Cl (stereo not drawn) [Example 23]
logP: 2.02[a]
--
compound: CCC(CO)Nc1nc(Nc2cccc(C(C)=O)c2)ncc1Cl (stereo not drawn) [Example 21]
logP: 1.53[a]
--
compound: CC(C)(C)Nc1nc(Nc2ccc(S(=O)(=O)N3CCOCC3)cc2)ncc1Cl [Example 64]
logP: 2.84[a]
--
compound: CSC[C@H](C)Nc1nc(Nc2ccc(S(=O)(=O)N(C)C)cc2)ncc1Cl [Example 30]
logP: 2.59[a]
--
compound: COCCNc1nc(Nc2ccccc2)ncc1Cl [Example 3]
logP: 1.41[a]
--
compound: COCC(C)Nc1nc(Nc2ccc(S(=O)(=O)N3CCOCC3)cc2)ncc1Cl (stereo not drawn) [Example 63]
logP: 2.18[a]
--
compound: CC(C)Nc1nc(Nc2ccccc2)ncc1Cl [Example 36]
logP: 1.77[a]
--
compound: COCCNc1nc(Nc2cc(OC)c(OC)c(OC)c2)ncc1Cl [Example 1]
logP: 1.45[a];
--
compound: CCC(CO)Nc1nc(Nc2ccc(S(=O)(=O)N(C)C)cc2)ncc1Cl (stereo not drawn) [Example 22]
logP: 1.83[a]
--
compound: COCC(C)Nc1nc(Nc2cccc(Cl)c2)ncc1Cl (stereo not drawn) [Example 10]
logP: 2.58[a]
--
compound: COCC(C)Nc1nc(Nc2cc(OC)cc(OC)c2)ncc1Cl (stereo not drawn) [Example 14]
logP: 1.94[a]
--
compound: CC(C)N(C)c1nc(Nc2cccc(S(=O)(=O)N(C)C)c2)ncc1Cl [Example 43]
logP: 2.96[a]
--
compound: COCC(C)Nc1nc(Nc2ccc(OC(C)C)cc2)ncc1Cl (stereo not drawn) [Example 8]
logP: 1.69[a]
--
compound: CC(=O)c1cccc(Nc2ncc(Cl)c(NCCO)n2)c1.Cl [Example 56]
logP: 1.06[a]
--
compound: CSCC(C)Nc1nc(Nc2ccccc2)ncc1Cl (stereo not drawn) [Example 37]
logP: 2.04[a]
--
compound: CCC(CO)Nc1nc(Nc2cccc(Cl)c2)ncc1Cl (stereo not drawn) [Example 17]
logP: 1.96[a]
--
compound: COc1cc(Nc2ncc(Cl)c(NCCO)n2)cc(OC)c1OC.Cl [Example 55]
logP: 1.09[a]
--
compound: CC(=O)c1cccc(Nc2ncc(Cl)c(N(C)C(C)C)n2)c1.Cl [Example 45]
logP: 2.5[a]
--
compound: CC(C)Oc1ccc(Nc2ncc(Cl)c(NCCO)n2)cc1.Cl [Example 59]
logP: 1.48[a]
--
compound: COCCNc1nc(Nc2cc(OC)cc(OC)c2)ncc1Cl [Example 4]
logP: 1.67[a]

src = patent US20110230478A1
